Target: glucocorticoid receptor, rat thymus (Rattus norvegicus)
Construct: The second test was a glucocrticoid receptor test on rat thymus; from tissue; host or cells: thymus of adrenalectomized male Sprague Dawley EOPS rats, 105,000 g supernatant (cytosol)
Assay: Relative binding affinity (ARL), glucocorticoid receptor of rat thymus
Conditions: incubation 24H at 0° C.; rat thymus cytosol; tritiated dexamethasone; cold reference dexamethasone
Procedure: The second test was a glucocrticoid receptor test on rat thymus in which male rats of the Sprague Dawley EOPS strain weighing 160 to 200 g were surrenalectomized. […] The concentration B of bound tritiated dexamethasone was measured for each incubate by carbon-dextran absorption technique. The relative affinity of the bond (ARL) was calculated in the same for the receptors. […]
PROPERTY: relative affinity of the bond (ARL), Glucocorticoid, 24H
The reply should be a number, written without any unit.

{"SMILES REPRESENTATION": "COc1cccc([C@]2(O)CC[C@H]3[C@@H]4CCC5=CC(=O)CCC5=C4[C@@H](c4ccc(N(C)C)cc4)C[C@@]32C)c1", "TESTED SYSTEM": "glucocorticoid receptor, rat thymus (Rattus norvegicus)", "MEASURED": 76}
{"SMILES REPRESENTATION": "COc1ccccc1[C@@]1(O)CC[C@H]2[C@@H]3CCC4=CC(=O)CCC4=C3[C@@H](c3ccc(N(C)C)cc3)C[C@@]21C", "TESTED SYSTEM": "glucocorticoid receptor, rat thymus (Rattus norvegicus)", "MEASURED": 40}

Read the next record carefully.
State the measured relative affinity of the bond (ARL), Glucocorticoid, 24H (glucocorticoid receptor, rat thymus (Rattus norvegicus)) of CN(C)c1ccc([C@H]2C[C@@]3(C)[C@@H](CC[C@@]3(O)c3ccc(N(C)C)cc3)[C@@H]3CCC4=CC(=O)CCC4=C32)cc1
58

---

target: glucocorticoid receptor, rat thymus (Rattus norvegicus, UniProt P06536); construct: The second test was a glucocrticoid receptor test on rat thymus; from tissue; host or cells: thymus of adrenalectomized male Sprague Dawley EOPS rats, 105,000 g supernatant (cytosol); assay: Relative binding affinity (ARL), glucocorticoid receptor of rat thymus; conditions: incubation 2H at 0° C.; rat thymus cytosol; tritiated dexamethasone; cold reference dexamethasone
Sequence (P06536 whole entry): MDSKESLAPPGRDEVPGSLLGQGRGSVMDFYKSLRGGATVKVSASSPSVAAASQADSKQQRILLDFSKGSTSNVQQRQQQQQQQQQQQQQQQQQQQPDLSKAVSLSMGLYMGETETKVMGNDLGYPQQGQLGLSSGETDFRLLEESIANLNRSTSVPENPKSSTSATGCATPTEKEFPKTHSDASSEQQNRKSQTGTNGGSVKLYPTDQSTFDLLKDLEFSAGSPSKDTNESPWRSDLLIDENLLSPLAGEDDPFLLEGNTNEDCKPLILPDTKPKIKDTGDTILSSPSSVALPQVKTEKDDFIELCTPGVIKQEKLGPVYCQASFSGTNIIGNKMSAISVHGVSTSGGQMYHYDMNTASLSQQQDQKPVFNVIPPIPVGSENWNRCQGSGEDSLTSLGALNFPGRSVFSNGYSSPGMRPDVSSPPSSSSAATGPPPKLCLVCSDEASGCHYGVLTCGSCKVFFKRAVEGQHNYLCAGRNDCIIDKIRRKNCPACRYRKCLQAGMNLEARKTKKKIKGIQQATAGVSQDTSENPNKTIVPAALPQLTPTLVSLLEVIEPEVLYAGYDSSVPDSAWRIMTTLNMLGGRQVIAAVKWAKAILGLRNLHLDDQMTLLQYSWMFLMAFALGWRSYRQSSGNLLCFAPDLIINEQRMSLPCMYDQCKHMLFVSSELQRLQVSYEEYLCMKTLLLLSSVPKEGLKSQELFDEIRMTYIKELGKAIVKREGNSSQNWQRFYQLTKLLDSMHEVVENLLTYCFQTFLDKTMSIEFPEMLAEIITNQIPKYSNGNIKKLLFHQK
Outcome label depends on relative affinity of the bond (ARL), Glucocorticoid, 2H relative to 90: at/above gives criterion met, below gives criterion not met.

Solved cases below.
{"SMILES REPRESENTATION": "CN(C)c1ccc([C@H]2C[C@@]3(C)[C@@H](CC[C@@]3(O)c3ccccc3)[C@@H]3CCc4cc(O)ccc4[C@H]32)cc1", "TESTED SYSTEM": "glucocorticoid receptor, rat thymus (Rattus norvegicus, UniProt P06536)", "CAT": "criterion met"}
{"SMILES REPRESENTATION": "CN(C)c1ccc([C@H]2C[C@@]3(C)[C@@H](CC[C@@]3(O)c3ccccc3O)[C@@H]3CCC4=CC(=O)CCC4=C32)cc1", "TESTED SYSTEM": "glucocorticoid receptor, rat thymus (Rattus norvegicus, UniProt P06536)", "CAT": "criterion met"}
{"SMILES REPRESENTATION": "COc1ccccc1[C@]1(O)CC[C@H]2[C@@H]3CCC4=CC(=O)CCC4=C3[C@@H](c3ccc(N(C)C)cc3)C[C@@]21C", "TESTED SYSTEM": "glucocorticoid receptor, rat thymus (Rattus norvegicus, UniProt P06536)", "CAT": "criterion not met"}
{"SMILES REPRESENTATION": "Cc1ccc([C@]2(O)CC[C@H]3[C@@H]4CCC5=CC(=O)CCC5=C4[C@@H](c4ccc(N(C)C)cc4)C[C@@]32C)cc1", "TESTED SYSTEM": "glucocorticoid receptor, rat thymus (Rattus norvegicus, UniProt P06536)", "CAT": "criterion not met"}

Now for a further compound.
Entry CN(C)c1ccc([C@H]2C[C@@]3(C)[C@@H](CC[C@@]3(O)c3cccc(O)c3)[C@@H]3CCC4=CC(=O)CCC4=C32)cc1 : is its relative affinity of the bond (ARL), Glucocorticoid, 2H no less than 90?
criterion met

---

relative affinity of the bond (ARL), Glucocorticoid, 2H overview
target: glucocorticoid receptor, rat thymus (Rattus norvegicus); construct: The second test was a glucocrticoid receptor test on rat thymus; from tissue; host or cells: thymus of adrenalectomized male Sprague Dawley EOPS rats, 105,000 g supernatant (cytosol); experiment: Relative binding affinity (ARL), glucocorticoid receptor of rat thymus; conditions: incubation 2H at 0° C.; rat thymus cytosol; tritiated dexamethasone; cold reference dexamethasone
API doc: respond with a numeric literal and nothing else, no unit.

Study these solved cases before continuing.
{"MOLECULE": "COc1ccccc1[C@@]1(O)CC[C@H]2[C@@H]3CCC4=CC(=O)CCC4=C3[C@@H](c3ccc(N(C)C)cc3)C[C@@]21C [Example 11 (Product B)]", "MEASURED": 47}
{"MOLECULE": "CN(C)c1ccc([C@H]2C[C@@]3(C)[C@@H](CC[C@@]3(O)c3ccc(N(C)C)cc3)[C@@H]3CCC4=CC(=O)CCC4=C32)cc1 [Example 2]", "MEASURED": 61}
{"MOLECULE": "COc1ccc([C@H]2C[C@@]3(C)[C@@H](CC[C@@]3(O)c3ccc(OC)cc3)[C@@H]3CCC4=CC(=O)CCC4=C32)cc1 [Example 1]", "MEASURED": 94}
{"MOLECULE": "CN(C)c1ccc([C@H]2C[C@@]3(C)[C@@H](CC[C@@]3(O)c3ccc(O)cc3)[C@@H]3CCC4=CC(=O)CCC4=C32)cc1 [Example 6]", "MEASURED": 133}
{"MOLECULE": "CSc1ccc([C@H]2C[C@@]3(C)[C@@H](CC[C@@]3(O)c3ccc(N(C)C)cc3)[C@@H]3CCC4=CC(=O)CCC4=C32)cc1 [Example 7]", "MEASURED": 71}

Identify relative affinity of the bond (ARL), Glucocorticoid, 2H associated with the molecule CN(C)c1ccc([C@H]2C[C@@]3(C)[C@@H](CC[C@]3(O)c3cccc(O)c3)[C@@H]3CCC4=CC(=O)CCC4=C32)cc1 [Example 13 (Product B)]
76

Write down relative affinity of the bond (ARL), Glucocorticoid, 2H measured for item COc1ccc([C@]2(O)CC[C@H]3[C@@H]4CCC5=CC(=O)CCC5=C4[C@@H](c4ccc(N(C)C)cc4)C[C@@]32C)cc1 [Example 4]
65

---

biological target: glucocorticoid receptor, rat thymus (Rattus norvegicus, UniProt P06536); construct: The second test was a glucocrticoid receptor test on rat thymus; from tissue; host or cells: thymus of adrenalectomized male Sprague Dawley EOPS rats, 105,000 g supernatant (cytosol); test: Relative binding affinity (ARL), glucocorticoid receptor of rat thymus; conditions: incubation 24H at 0° C.; rat thymus cytosol; tritiated dexamethasone; cold reference dexamethasone
PROPERTY: relative affinity of the bond (ARL), Glucocorticoid, 24H
// response body must contain only the number

// solved cases for relative affinity of the bond (ARL), Glucocorticoid, 24H follow
{"SMILES REPRESENTATION": "COc1ccc([C@]2(O)CC[C@H]3[C@@H]4CCC5=CC(=O)CCC5=C4[C@@H](c4ccc(N(C)C)cc4)C[C@@]32C)cc1", "TESTED SYSTEM": "glucocorticoid receptor, rat thymus (Rattus norvegicus, UniProt P06536)", "MEASURED": 69}
{"SMILES REPRESENTATION": "COc1ccc([C@H]2C[C@@]3(C)[C@@H](CC[C@@]3(O)c3ccc(OC)cc3)[C@@H]3CCC4=CC(=O)CCC4=C32)cc1", "TESTED SYSTEM": "glucocorticoid receptor, rat thymus (Rattus norvegicus, UniProt P06536)", "MEASURED": 68}
{"SMILES REPRESENTATION": "CN(C)c1ccc([C@H]2C[C@@]3(C)[C@@H](CC[C@@]3(O)c3ccccc3O)[C@@H]3CCC4=CC(=O)CCC4=C32)cc1", "TESTED SYSTEM": "glucocorticoid receptor, rat thymus (Rattus norvegicus, UniProt P06536)", "MEASURED": 112}

Then there is this compound:
Check the records and state relative affinity of the bond (ARL), Glucocorticoid, 24H for CN(C)c1ccc([C@H]2C[C@@]3(C)[C@@H](CC[C@@]3(O)c3ccc(O)cc3)[C@@H]3CCC4=CC(=O)CCC4=C32)cc1
97

---

Molecular target: progesterone receptors of rabbit uterus (Oryctolagus cuniculus, UniProt P06186)
Construct: The first test was on the progesterone receptors of rabbit uterus; from tissue; host or cells: uterus of estradiol-treated immature rabbits, 105,000 g supernatant (cytosol)
Sequence (P06186 1-930): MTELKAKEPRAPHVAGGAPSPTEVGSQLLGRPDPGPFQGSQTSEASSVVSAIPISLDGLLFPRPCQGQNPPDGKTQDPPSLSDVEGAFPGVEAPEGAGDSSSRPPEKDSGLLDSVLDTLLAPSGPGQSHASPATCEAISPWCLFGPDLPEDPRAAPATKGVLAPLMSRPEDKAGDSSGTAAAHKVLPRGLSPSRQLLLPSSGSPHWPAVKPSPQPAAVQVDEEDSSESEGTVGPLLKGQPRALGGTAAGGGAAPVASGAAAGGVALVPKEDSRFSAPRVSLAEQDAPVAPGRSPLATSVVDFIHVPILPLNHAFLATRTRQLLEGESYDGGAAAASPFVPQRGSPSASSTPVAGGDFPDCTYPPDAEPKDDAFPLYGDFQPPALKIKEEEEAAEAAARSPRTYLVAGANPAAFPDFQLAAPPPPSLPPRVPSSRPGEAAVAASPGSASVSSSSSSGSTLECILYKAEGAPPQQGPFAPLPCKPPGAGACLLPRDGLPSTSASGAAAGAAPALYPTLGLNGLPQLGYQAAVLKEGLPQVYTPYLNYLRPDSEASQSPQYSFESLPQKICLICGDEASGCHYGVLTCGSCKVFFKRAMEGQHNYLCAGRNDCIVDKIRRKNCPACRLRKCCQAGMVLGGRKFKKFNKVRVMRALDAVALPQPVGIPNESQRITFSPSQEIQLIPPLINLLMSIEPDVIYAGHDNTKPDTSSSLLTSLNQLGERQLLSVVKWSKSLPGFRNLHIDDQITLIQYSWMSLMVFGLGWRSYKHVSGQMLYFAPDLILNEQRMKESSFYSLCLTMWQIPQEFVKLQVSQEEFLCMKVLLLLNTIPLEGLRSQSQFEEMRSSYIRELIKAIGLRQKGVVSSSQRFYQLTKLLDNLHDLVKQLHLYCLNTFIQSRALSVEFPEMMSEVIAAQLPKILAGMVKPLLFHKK
Assay: Relative binding affinity (ARL), progesterone receptors of rabbit uterus
Conditions: incubation 24H at 0° C.; rabbit uterus cytosol; tritiated 17,21-dimethyl-19-nor-Δ4,9-pregnadiene-3,20-dione; cold reference hormone progesterone
Rule: relative affinity of the bond (ARL), Progestogen, 24H under 200 gives No, otherwise Yes.

{"COMPOUND": "CN(C)c1ccc([C@H]2C[C@@]3(C)[C@@H](CC[C@@]3(O)c3ccc(O)cc3)[C@@H]3CCC4=CC(=O)CCC4=C32)cc1 [Example 6]", "CAT": "No"}
{"COMPOUND": "COc1ccc([C@H]2C[C@@]3(C)[C@@H](CC[C@@]3(O)c3ccc(OC)cc3)[C@@H]3CCC4=CC(=O)CCC4=C32)cc1 [Example 1]", "CAT": "Yes"}
{"COMPOUND": "Cc1ccc([C@]2(O)CC[C@H]3[C@@H]4CCC5=CC(=O)CCC5=C4[C@@H](c4ccc(N(C)C)cc4)C[C@@]32C)cc1 [Example 9]", "CAT": "No"}
{"COMPOUND": "CSc1ccc([C@H]2C[C@@]3(C)[C@@H](CC[C@@]3(O)c3ccc(N(C)C)cc3)[C@@H]3CCC4=CC(=O)CCC4=C32)cc1 [Example 7]", "CAT": "No"}

// inclusive: relative affinity of the bond (ARL), Progestogen, 24H at least 200? input: COc1ccc([C@]2(O)CC[C@H]3[C@@H]4CCC5=CC(=O)CCC5=C4[C@@H](c4ccc(N(C)C)cc4)C[C@@]32C)cc1 [Example 4]
Yes

Decide: is the reported value of relative affinity of the bond (ARL), Progestogen, 24H for CN(C)c1ccc([C@H]2C[C@@]3(C)[C@@H](CC[C@@]3(O)c3ccc(N(C)C)cc3)[C@@H]3CCC4=CC(=O)CCC4=C32)cc1 [Example 2] equal to or greater than 200?
No
